Target: wild-type Aedes aegypti EcR (AaEcR-DEF) (Aedes aegypti)
Sequence (P49880 405-776 limits assumed): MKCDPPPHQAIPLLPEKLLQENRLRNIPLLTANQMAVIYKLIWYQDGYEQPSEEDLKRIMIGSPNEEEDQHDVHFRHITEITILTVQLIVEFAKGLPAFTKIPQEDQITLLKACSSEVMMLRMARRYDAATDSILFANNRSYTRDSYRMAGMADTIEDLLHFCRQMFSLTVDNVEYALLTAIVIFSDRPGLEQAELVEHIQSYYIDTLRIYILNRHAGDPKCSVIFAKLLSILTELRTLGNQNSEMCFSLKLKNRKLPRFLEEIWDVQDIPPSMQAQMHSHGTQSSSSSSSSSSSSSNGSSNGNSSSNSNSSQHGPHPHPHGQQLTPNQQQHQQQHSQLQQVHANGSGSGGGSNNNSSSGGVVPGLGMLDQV
Experiment: Two-hybrid gene switch assay, AaEcR-DEF in NIH3T3 cells
Conditions: read-out: EC50 (μM), AA; AaEcR, NIH3T3 cells, luciferase, 48 h, ligand 0.01-33 μM
observation-type: EC50

The recorded EC50 for entry COC1C[C@H]2C(=O)C=C3[C@H](CC[C@]4(C)[C@@H]([C@@](C)(O)C(CCC(C)(C)O)OC)CC[C@@]34OC)[C@@]2(C)CC1OC (stereo partly shown) [20E-2,3,14,22-tetramethyl ether] equals > 33 µM

---

Target: wild-type Drosophila melanogaster EcR (DmEcR-DEF) (Drosophila melanogaster, UniProt P34021)
Sequence (P34021 342-878 limits assumed): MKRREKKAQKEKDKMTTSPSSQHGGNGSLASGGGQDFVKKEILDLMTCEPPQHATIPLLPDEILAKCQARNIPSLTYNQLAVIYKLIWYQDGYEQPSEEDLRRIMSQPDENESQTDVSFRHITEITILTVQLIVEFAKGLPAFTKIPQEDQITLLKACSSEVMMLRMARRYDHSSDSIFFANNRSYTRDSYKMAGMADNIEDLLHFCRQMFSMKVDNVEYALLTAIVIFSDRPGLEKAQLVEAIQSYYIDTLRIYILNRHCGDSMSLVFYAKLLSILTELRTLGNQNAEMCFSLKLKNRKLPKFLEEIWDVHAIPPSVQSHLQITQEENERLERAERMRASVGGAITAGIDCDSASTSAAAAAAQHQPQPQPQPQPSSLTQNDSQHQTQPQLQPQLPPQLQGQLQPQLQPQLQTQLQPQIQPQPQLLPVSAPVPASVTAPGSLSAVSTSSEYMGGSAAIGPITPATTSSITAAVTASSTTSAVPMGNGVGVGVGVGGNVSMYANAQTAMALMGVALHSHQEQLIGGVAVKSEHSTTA
Experiment: Two-hybrid gene switch assay, DmEcR-DEF in NIH3T3 cells
pEC50: −log10 of the molar value.
Hi there, I'd appreciate the recorded pEC50 for every entry that follows.

The recorded pEC50 for entry CO[C@@H]1C[C@H]2C(=O)C=C3[C@H](CC[C@]4(C)[C@@H]([C@@](C)(O)[C@@H](CCC(C)(C)O)OC)CC[C@@]34O)[C@@]2(C)C[C@@H]1O [20E-3,22-dimethyl ether] equals ~4.70

The recorded pEC50 for entry CO[C@H]1C[C@@]2(C)[C@@H](C[C@H]1O)C(=O)C=C1[C@@H]2CC[C@]2(C)[C@@H]([C@@](C)(O)[C@H](O)CCC(C)(C)O)CC[C@@]12O [20E-2-methyl ether] equals < 4.48

The recorded pEC50 for entry CO[C@H](CCC(C)(C)O)[C@](C)(O)C1CC[C@@]2(O)C3=CC(=O)C4C[C@@H](O)[C@@H](O)CC4(C)C3CCC12C (stereo partly shown) [20E-22-methyl ether] equals ~5.40

The recorded pEC50 for entry CO[C@@H]1C[C@H]2C(=O)C=C3[C@H](CC[C@]4(C)[C@@H]([C@@](C)(O)[C@H](O)CCC(C)(C)O)CC[C@@]34O)[C@@]2(C)C[C@@H]1O [20E-3-methyl ether] equals < 4.48

---

Biological target: MsEcR (GAL4-EcR DEF with VP16-RXR-USP chimera) (Manduca sexta, UniProt P49883)
Sequence (P49883 whole entry, change not shown, the tested form may be a part): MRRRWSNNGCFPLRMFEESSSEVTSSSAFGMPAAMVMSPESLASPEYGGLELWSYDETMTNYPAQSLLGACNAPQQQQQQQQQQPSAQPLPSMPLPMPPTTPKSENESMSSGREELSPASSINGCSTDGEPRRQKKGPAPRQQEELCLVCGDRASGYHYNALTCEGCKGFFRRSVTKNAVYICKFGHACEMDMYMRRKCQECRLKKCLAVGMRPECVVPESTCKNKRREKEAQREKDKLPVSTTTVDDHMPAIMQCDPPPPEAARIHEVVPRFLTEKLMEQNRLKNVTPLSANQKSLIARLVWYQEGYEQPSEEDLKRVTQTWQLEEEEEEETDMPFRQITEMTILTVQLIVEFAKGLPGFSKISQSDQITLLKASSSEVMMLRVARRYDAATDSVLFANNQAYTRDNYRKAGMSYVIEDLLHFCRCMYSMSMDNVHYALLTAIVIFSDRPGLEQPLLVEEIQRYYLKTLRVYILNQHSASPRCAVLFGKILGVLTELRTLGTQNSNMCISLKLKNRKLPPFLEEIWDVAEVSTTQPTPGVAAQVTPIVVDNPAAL
Sequence (P28702 whole entry partner, the tested form may be a part): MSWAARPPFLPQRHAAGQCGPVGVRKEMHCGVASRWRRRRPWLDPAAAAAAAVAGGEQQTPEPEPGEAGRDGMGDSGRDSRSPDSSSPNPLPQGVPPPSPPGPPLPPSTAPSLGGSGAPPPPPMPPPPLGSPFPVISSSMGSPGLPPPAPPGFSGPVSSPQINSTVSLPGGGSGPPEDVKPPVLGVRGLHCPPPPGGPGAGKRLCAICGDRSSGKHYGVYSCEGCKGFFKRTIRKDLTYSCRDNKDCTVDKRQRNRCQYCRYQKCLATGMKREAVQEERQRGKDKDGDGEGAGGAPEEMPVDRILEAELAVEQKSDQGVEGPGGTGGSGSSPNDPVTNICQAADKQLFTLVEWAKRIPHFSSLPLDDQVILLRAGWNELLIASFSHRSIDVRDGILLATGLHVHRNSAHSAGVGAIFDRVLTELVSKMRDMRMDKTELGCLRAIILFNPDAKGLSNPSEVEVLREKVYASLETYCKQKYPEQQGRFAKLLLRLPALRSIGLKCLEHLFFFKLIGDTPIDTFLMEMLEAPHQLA
Assay: Two-hybrid gene switch assay, luciferase reporter, MsEcR, mouse NIH3T3 cells
Settings: EC50, FIG. 13A/13B, GAL4-EcR(DEF) with VP16-RXR-USP chimera
pEC50: −log10 of the molar value.
observation-type: pEC50

The recorded pEC50 for entry CCCCCCCCCC(=O)OC1CC2(C)C(C(C)(O)C(O)CCC(C)(C)O)CCC2(O)C2=CC(=O)C3CC(O)C(O)CC3(C)C21 (stereo not drawn) [turkesterone-11a-decanoate] equals < 4.48

The recorded pEC50 for entry CC(C)(O)CC[C@@H](O)[C@](C)(O)[C@H]1CC[C@@]2(O)C3=C[C@@H](O)[C@@H]4C[C@@H](O)[C@@H](O)C[C@]4(C)[C@H]3CC[C@]12C [Compound 6b-hydroxy-20-hydroxyecdysone] equals ~4.92

The recorded pEC50 for entry CC(C)(O)CC[C@@H](O)[C@](C)(O)[C@H]1CC[C@@]2(O)C3=CC(=O)[C@@H]4C[C@H](O)[C@@H](O)C[C@]4(C)[C@H]3CC[C@]12C equals ~5.00

The recorded pEC50 for entry CCC(=O)OC1CC2(C)C(C(C)(O)C(O)CCC(C)(C)O)CCC2(O)C2=CC(=O)C3CC(O)C(O)CC3(C)C21 (stereo not drawn) [turkesterone-11 a -propionate] equals < 4.48

The recorded pEC50 for entry CC(C)(O)CC[C@@H](O)[C@](C)(O)[C@H]1CC[C@@]2(O)C3=CC(=O)[C@]4(O)C[C@@H](O)[C@@H](O)C[C@]4(C)[C@H]3CC[C@]12C equals ~5.70

The recorded pEC50 for entry CCC(CC(O)C(C)(O)C1CCC2(O)C3=CC(=O)C4CC(O)C(O)CC4(C)C3CCC12C)C(C)(C)O (stereo not drawn) equals ~5.40

The recorded pEC50 for entry CC(C)(O)CC[C@@H](O)[C@](C)(O)[C@H]1CC[C@@]2(O)C3=CC(=O)[C@@H]4C[C@@H](O)[C@@H](O)C[C@]4(C)C3=CC[C@]12C [Compound 25-hydroxydacryhainansterone] equals ~5.00

The recorded pEC50 for entry C[C@H]([C@H](O)CCC(C)(C)O)[C@H]1CC[C@@]2(O)C3=CC(=O)[C@@H]4C[C@@H](O)[C@@H](O)C[C@]4(C)[C@H]3CC[C@]12C equals < 4.48

The recorded pEC50 for entry CC(C)(O)CC[C@@H](O)[C@](C)(O)[C@H]1CC[C@@]2(O)C3=CC(=O)[C@@H]4C[C@@H](O)[C@@H](O)[C@@H](O)[C@]4(C)[C@H]3CC[C@]12C equals ~4.92
